Assay: yeast display, Sf9 membrane polyspecificity reagent, FACS + sequencing; frameworks hold sequencing errors
readout-name: polyreactivity (PSR sort gate)

1) QVQLVESGGGLVQAGGSLRLSCAASGRTFASNDMGWYRQAPGKERELVADINNGARTYYADSVKGRFTISRDNAKNTVYLQMNSLKPEDTAVYYCNTRSGFYLGDFDYWGQGTQVTVSS = high polyreactivity
2) QVQLVESGGGLVQAGGSLRLSCAASGRISLSNAMGWYRQAPGKEREFVAAITKRSDRTYYADSVKGRFTISRDNAKNTVYLQMNSLKPEDRAVYYCAAKPLFGTRDDYWGQGTQVTVSS = low polyreactivity
3) QVQLEESGGGLVQAGGSLRLTCAASGSTFYGYAMGWYRQAPGKERELVAAITRSGGSTYYADSVKVRFTISRDNAKYTVYLQMNSLKPEDTAVYYCNKYIGWYGTGSDYYWGQGTQVNVSS = high polyreactivity
4) QVQLQESGGGLVQAGGSLLSCAASGTISWVDEMGWYRQAPGNERELVAGIAGGGNTNYADSVKGRFTISRDNAKNTVYLQMNSLDTAVYYCAVVGFGLGTHIYWGQGTQVTVSS = high polyreactivity
5) QVQLVESGGGLVQAGGSLRLSCAASGRTFYYYAMGWYIPAPGKERELVARISYSGSNTYYADSVKGRFTISRDTAKNTVYLQMNSLKREVTAGYYCAAGYLVWRDSATLDYWGQGTQVTVSS = high polyreactivity
6) QVQLVESGGGLVQAGGSLRLSCAATGSTFRNNAMGWSRQAPGKERELVAAISRGGGSTYYADSVKGRFTISRDNAKNTVYLQMNSLKPEVTAVYYCARRPTGIYDYWGQGTQVTLSS = high polyreactivity
7) QVQLVESGGGLVQAGGSLRLSCAASGSIFNAYDMGWYRQAPGKERELVAGISSSDSTYYADSVKGRFTISRDNAKNTVYLQMNSLIPEDTAVYYCAADPVFAAAYIHLYGIYDSWGQGTQVTVSS = low polyreactivity
8) QVQLVESGGVLVQAGGSLRLSCAASGGIFQGNVMGWYRQAPGKERELVASIRRGGSTNYADSVKGPFTISRDNAKNTVYLQMNSLKPEDTAVYYCNAAFYKEYYYWGQGTQVTVSS = low polyreactivity
9) QVQLVESGGGLVQAGGSLRLICAASGSTFASYAMGWYRQAPGKERELVAAITRRGGSTYYADSVKGRFTISRDNAKNTVYLQMNSLKPEDTAVYYCAAKWTPATYKFDYWGQGTQVTVSS = high polyreactivity
10) QVQLVESGGGLVQAGGSLRLSCAASGSIFYENAMGWYRKAPGKEREFVATIDLIGDRTYYADSVKGRFTISRDNAKNTVYLQMNSLKPEDTAVYYCAAERVGVFFRYDYWGQGTQVTVSS = low polyreactivity
11) QVQLVESGGGLVQAGGSLRLSSAASGRIFKYYAMGWYRQAPGKERELVAAISWRGGRTYYADSVKGRFTISRDNAKNTVYLQMNSLKPEDTAVYYCAAEWYATMGYWGQGTQVTVSS = low polyreactivity
12) QVHLVDSGGGLVQAGGSLRLSCAASGSIIVFYAMGWYRQAPGKERELVAAITDSGSTNYADSVKGRFTISRDNAKNTVYLQMNSLKPEDTAVYYCDWSYYVLRRYRVARYDSGGQGTQVTVSS = low polyreactivity
13) QVHLVESGGGLVQAGASLRLSCAASGITFRFNAMGWYRQAPGKEREFVAAITYSGDSTYYADSVKGRFTISRDNAKNTVYLQMNSLKPEDTAVYYCAADYYAISRRMFYYWGQGTQVTVSS = low polyreactivity
14) QVQLVESGGGLVQAGGSLRLSCAASGLTFSYYAMGWYRQAPGKERELVAAISITGSTNYADSVKGRFTISRDNAKNTVYLQMNSLKPEDTAVYYCAARRSLSVLPYYYWGQGTQVTVSS = high polyreactivity
15) QVQLVESGGGLVQAGGSLRLSCAASGRTFRRYNMGWYRQAPGKERELVAAITTSGGSTYYSDSVKGRFTISRDNAKNTVYLQMNSLIPEDTAVYYCAATRRYSGDYWGQGTQVSVSS = high polyreactivity
16) QVQLVESGGGLVQAGGSLRLICAASGSTFYSYAMGWYRQAPGKERELVAVISWSGGSTYYADSVKGRFTISRDNAKNTVYLQMNSLKPEDTAVYYCAAESYYSDDWYYAYYYWGQGTQVTVSS = high polyreactivity
17) QVQRVESGGGLVQAGGSLRLSCAASGFTFSLYGMGWYRPARGKGRELVAAIRSGGSTNYADSVKGRYTISRDNAKNTVYLQMNSLKPEDTAVYYCATDIHSGHNNRDKHDYDYWGQGTQETVSS = low polyreactivity
18) QVQLVESGGGLVQAGGSLRLSCAASGRIFGSYTMGWYRQAPGKERELVAAISWSGGNTYYADSVKGRFTISRDNAKNTVYLLMNSQKPEDTAVYYCNALYYRPPKWYGYWGQGTQVTVSS = high polyreactivity
19) QVQLVESGGGLVQAGGSLRLSCGASGRIFGRYAMGWYRQAPAKERELVAVITFSGGDTFYADSVKGRFTISRDNAKNTVYLQMNSLKPEDTAVYYCAKSQGFETYRNVSIFGYWGQGTQVTVSS = low polyreactivity
20) QVQVVESGGGLVQAGGSLRLSCAGSGSIFRVYAMGWYRQAPGKVREWVASISRRGGSTYYADSVKGRFTISRDNAKNTVYLQMNSLKPEDTAVDYCAAEFVIGGHGYDYWGQGTQVTVSS = high polyreactivity
21) QVQLVESGGGLVQAGGSLRLSCAASGRTFATNAMGWYRQAPGKERELVADISGGGSTYYADSVKGRFTISRDNAKNTVYLQMNSLKPEDTAVYYCAARDYHWFQWYDYWGQGTQVTVSS = low polyreactivity

// data source = the nanobody polyreactivity screen of Harvey et al. (2022)
